Source: patent EP0674651B1

Reported pIC50 is given for each of the following compounds.
- TARGET OR TEST SYSTEM: human type 2 5α-reductase (Homo sapiens)
- Sequence (P31213 whole entry): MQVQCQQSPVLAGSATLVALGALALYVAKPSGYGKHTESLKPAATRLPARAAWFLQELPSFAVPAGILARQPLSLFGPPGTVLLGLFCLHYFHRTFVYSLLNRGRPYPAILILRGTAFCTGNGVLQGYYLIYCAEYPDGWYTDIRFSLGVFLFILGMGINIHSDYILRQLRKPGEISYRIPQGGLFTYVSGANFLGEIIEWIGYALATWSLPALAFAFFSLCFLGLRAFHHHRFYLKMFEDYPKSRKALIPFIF
- PROTOCOL: 5α-reductase in vitro inhibitory activity, human type 2
pIC50: −log10 of the molar value.

In the examples that follow, each entry is paired with its recorded pIC50.
smi=CC(C)(C)c1cc(Br)ccc1NC(=O)[C@H]1CC[C@H]2[C@@H]3CNC4=CC(=O)CC[C@]4(C)[C@H]3CC[C@]12C assay_value="> 8.00"
smi=CC(C)(C)NC(=O)c1ccc(C(F)(F)F)cc1NC(=O)[C@H]1CC[C@H]2[C@@H]3CNC4=CC(=O)CC[C@]4(C)[C@H]3CC[C@]12C assay_value="> 8.00"

Let us move to another entry and its pIC50.
# lookup: pIC50 of `COc1ccc(C2(NC(=O)[C@H]3CC[C@H]4[C@@H]5CNC6=CC(=O)CC[C@]6(C)[C@H]5CC[C@]34C)CCCCC2)cc1`
> 8.00

====

- TARGET OR TEST SYSTEM: human type 2 5α-reductase (Homo sapiens)
- PROTOCOL: 5α-reductase in vitro inhibitory activity, human type 2
- SETUP CONDITIONS: read-out: IC50 Human Type 2; microsomes; preincubated 20 minutes at pH 6.0; 8nM testosterone; 1 mM NADPH
pIC50: −log10 of the molar value.
PROPERTY NAME: pIC50

# lookup: pIC50 of `C[C@]12CC[C@H]3[C@@H](CNC4=CC(=O)CC[C@@]43C)[C@@H]1CC[C@@H]2C(=O)Nc1ccc2c(c1)OCCO2`
7.00 to 8.00

====

Reported IC50 is given for each of the following compounds.
- TARGET OR TEST SYSTEM: human type 1 5α-reductase (Homo sapiens)
- Sequence (P18405 whole entry): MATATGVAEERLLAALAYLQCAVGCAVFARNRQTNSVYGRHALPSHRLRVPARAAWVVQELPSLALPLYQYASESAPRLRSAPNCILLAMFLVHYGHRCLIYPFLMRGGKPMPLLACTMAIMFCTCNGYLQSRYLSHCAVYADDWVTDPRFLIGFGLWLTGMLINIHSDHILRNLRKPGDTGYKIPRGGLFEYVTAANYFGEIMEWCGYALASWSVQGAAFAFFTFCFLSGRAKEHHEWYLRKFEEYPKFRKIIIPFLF
- PROTOCOL: 5α-reductase in vitro inhibitory activity, human type 1

In the examples that follow, each entry is paired with its recorded IC50.
compound="C[C@]12CC[C@H]3[C@@H](CNC4=CC(=O)CC[C@@]43C)[C@@H]1CC[C@@H]2C(=O)NCCSc1ccccc1 [Compound 23]" assay_value="0.01 to 0.1 µM"
compound="CC(C)(C)c1ccc(C2(NC(=O)[C@H]3CC[C@H]4[C@@H]5CNC6=CC(=O)CC[C@]6(C)[C@H]5CC[C@]34C)CCCC2)cc1 [Compound 121]" assay_value="< 0.01 µM"
compound="CC(C)Oc1ccc(C(=O)[C@H]2CC[C@H]3[C@@H]4CNC5=CC(=O)CC[C@]5(C)[C@H]4CC[C@]23C)cc1 [Compound 33]" assay_value="> 0.1 µM"
compound="Cc1cc(Br)cc(C)c1NC(=O)[C@H]1CC[C@H]2[C@@H]3CNC4=CC(=O)CC[C@]4(C)[C@H]3CC[C@]12C [Compound 46]" assay_value="0.01 to 0.1 µM"
compound="C[C@]12CC[C@H]3[C@@H](CNC4=CC(=O)CC[C@@]43C)[C@@H]1CC[C@@H]2C(=O)NC(C1CCCCC1)C1CCCCC1 [Compound 34]" assay_value="0.01 to 0.1 µM"

# lookup: IC50 of CCc1cc(C#N)ccc1NC(=O)[C@H]1CC[C@H]2[C@@H]3CNC4=CC(=O)CC[C@]4(C)[C@H]3CC[C@]12C [Compound 84]
0.01 to 0.1 µM

Entry C[C@]12CC[C@H]3[C@@H](CNC4=CC(=O)CC[C@@]43C)[C@@H]1CC[C@@H]2C(=O)NC1c2ccccc2-c2ccccc21 [Compound 1] please
> 0.1 µM

Entry CC(C)(CO)NC(=O)[C@H]1CC[C@H]2[C@@H]3CNC4=CC(=O)CC[C@]4(C)[C@H]3CC[C@]12C [Compound 21] please
> 0.1 µM

Entry CC(C)c1cccc(C(C)C)c1NC(=O)[C@H]1CC[C@H]2[C@@H]3CNC4=CC(=O)CC[C@]4(C)[C@H]3CC[C@]12C [Compound 14] please
0.01 to 0.1 µM

Entry C[C@]12CC[C@H]3[C@@H](CNC4=CC(=O)CC[C@@]43C)[C@@H]1CC[C@@H]2C(=O)NC1(c2ccc3c(c2)OCO3)CCCCC1 [Compound 124] please
0.01 to 0.1 µM

Entry COc1ccc(C2(NC(=O)[C@H]3CC[C@H]4[C@@H]5CNC6=CC(=O)CC[C@]6(C)[C@H]5CC[C@]34C)CCCC2)cc1 [Compound 115] please
< 0.01 µM

Entry CC(C)c1cccc(C(C)C)c1NC(=O)OC[C@H]1CC[C@H]2[C@@H]3CNC4=CC(=O)CC[C@]4(C)[C@H]3CC[C@]12C [Compound 99] please
< 0.01 µM

Entry CCOC(=O)c1ccc(NC(=O)[C@H]2CC[C@H]3[C@@H]4CNC5=CC(=O)CC[C@]5(C)[C@H]4CC[C@]23C)cc1 [Compound 134] please
0.01 to 0.1 µM
